target: Cyclin-dependent kinase 7/ cyclin H (Homo sapiens, UniProt P50613); assay: Inhibition of CDK7/Cyclin H (unknown origin) by radiometric assay; conditions: read-out: Ki(app)
Sequence (P51946 whole entry): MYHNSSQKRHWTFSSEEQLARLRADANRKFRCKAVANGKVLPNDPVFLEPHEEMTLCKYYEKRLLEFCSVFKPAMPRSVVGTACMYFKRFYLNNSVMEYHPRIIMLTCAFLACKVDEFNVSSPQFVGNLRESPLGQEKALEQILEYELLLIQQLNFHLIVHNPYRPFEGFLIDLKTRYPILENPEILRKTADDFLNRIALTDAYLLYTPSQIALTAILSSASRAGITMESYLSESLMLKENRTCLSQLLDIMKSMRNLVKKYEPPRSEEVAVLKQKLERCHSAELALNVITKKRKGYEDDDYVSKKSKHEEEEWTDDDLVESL
Sequence (P50613 whole entry): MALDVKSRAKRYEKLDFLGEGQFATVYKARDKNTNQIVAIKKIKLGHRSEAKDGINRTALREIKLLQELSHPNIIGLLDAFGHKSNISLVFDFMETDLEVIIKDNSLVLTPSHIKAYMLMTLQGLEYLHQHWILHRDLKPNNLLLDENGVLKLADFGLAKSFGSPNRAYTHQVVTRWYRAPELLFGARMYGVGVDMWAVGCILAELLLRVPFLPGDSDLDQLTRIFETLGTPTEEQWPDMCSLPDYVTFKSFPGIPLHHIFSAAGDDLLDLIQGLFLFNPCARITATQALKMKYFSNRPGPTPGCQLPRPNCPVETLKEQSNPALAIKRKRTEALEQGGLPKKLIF
ENDPOINT: log10 Ki (log10 of the value in nM)

> print(dat)
                                 smiles.text  measurement
 1  CNc1nc(C)c(-c2nc(Nc3cccc(C(=O)N4CCN(C(C)=O)CC4)c3)ncc2C#N)s1         2.74
 2  CNc1nc(C)c(-c2ccnc(Nc3ccc(C)c(S(=O)(=O)N4CCOCC4)c3)n2)s1         2.18
 3  CNc1nc(C)c(-c2nc(Nc3cccc(S(=O)(=O)NCCOC)c3)ncc2C#N)s1         2.26
 4  CNc1nc(C)c(-c2nc(Nc3cccc(C(=O)NC4CCN(C)CC4)c3)ncc2F)s1         2.73
 5  CNc1nc(C)c(-c2nc(Nc3cccc(C(=O)NC4CCN(C)CC4)c3)ncc2C#N)s1         2.21
 6  Cc1nc(N)sc1-c1nc(Nc2cccc(S(N)(=O)=O)c2)ncc1F         2.40
 7  CNc1nc(C)c(-c2nc(Nc3cccc(S(=O)(=O)N4CCN(C)CC4)c3)ncc2C#N)s1         1.38
 8  CC(=O)N1CCN(c2cccc(Nc3ncc(F)c(-c4sc(N)nc4C)n3)c2)CC1         3.16
 9  CNc1nc(C)c(-c2ccnc(Nc3cccc(C(=O)N4CCOCC4)c3)n2)s1         2.59
10  CNc1nc(C)c(-c2nc(Nc3cccc(C(=O)N4CCN(C)CC4)c3)ncc2C#N)s1         2.92
11  CNc1nc(C)c(-c2nc(Nc3cccc(S(=O)(=O)N4CCOCC4)c3)ncc2C#N)s1         2.95
12  CNc1nc(C)c(-c2nc(Nc3ccc(C(=O)NC4CCN(C)CC4)cc3)ncc2C#N)s1         2.48
13  Cc1nc(N)sc1-c1nc(Nc2cccc(N3CCN(C)CC3)c2)ncc1F         2.68
14  CNc1nc(C)c(-c2nc(Nc3ccc(C)c(S(=O)(=O)N4CCOCC4)c3)ncc2F)s1         2.12
15  CNc1nc(C)c(-c2nc(Nc3cccc(C(=O)N4CCOCC4)c3)ncc2C#N)s1         3.27
16  CNc1nc(C)c(-c2nc(Nc3cccc(S(=O)(=O)NCCOC)c3)ncc2F)s1         1.48
17  CNc1nc(C)c(-c2nc(Nc3cccc(S(C)(=O)=O)c3)ncc2C#N)s1         2.04
18  CNc1nc(C)c(-c2nc(Nc3cccc(N4CCN(C)CC4)c3)ncc2F)s1         2.73

* * *

molecular target: Cyclin-dependent kinase 1/cyclin B1 (Homo sapiens, UniProt P06493); experiment: Inhibition of CDK1/Cyclin B (unknown origin) by radiometric assay; details: read-out: Ki(app)
Sequence (P06493 whole entry): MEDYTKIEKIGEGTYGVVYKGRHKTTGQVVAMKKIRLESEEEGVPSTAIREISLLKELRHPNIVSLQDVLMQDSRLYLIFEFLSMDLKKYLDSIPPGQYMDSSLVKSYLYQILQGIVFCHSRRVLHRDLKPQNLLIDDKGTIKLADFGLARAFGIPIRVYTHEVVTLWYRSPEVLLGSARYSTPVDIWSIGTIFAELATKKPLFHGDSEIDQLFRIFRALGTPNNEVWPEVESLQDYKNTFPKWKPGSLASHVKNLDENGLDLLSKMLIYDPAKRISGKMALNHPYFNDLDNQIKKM
Sequence (P14635 whole entry, further chain): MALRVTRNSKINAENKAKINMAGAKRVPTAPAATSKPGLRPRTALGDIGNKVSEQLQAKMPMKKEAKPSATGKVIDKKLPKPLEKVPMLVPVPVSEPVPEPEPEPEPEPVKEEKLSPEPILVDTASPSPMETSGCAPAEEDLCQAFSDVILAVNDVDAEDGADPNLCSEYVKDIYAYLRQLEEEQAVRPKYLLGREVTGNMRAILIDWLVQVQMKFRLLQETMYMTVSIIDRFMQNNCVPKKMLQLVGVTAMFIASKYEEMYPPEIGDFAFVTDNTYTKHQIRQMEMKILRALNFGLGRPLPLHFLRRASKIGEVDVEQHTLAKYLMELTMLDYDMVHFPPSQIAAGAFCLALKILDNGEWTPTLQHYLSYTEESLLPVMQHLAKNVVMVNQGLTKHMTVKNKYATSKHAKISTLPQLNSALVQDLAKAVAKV
Ki for assorted molecules
ENDPOINT: Ki (nM)

> print(dat)
                                 smiles.text  endpoint  unit.abbrev  op  measurement
 1  CNc1nc(C)c(-c2nc(Nc3cccc(N4CCN(C)CC4)c3)ncc2F)s1        Ki           nM   =           32
 2  CNc1nc(C)c(-c2nc(Nc3cc(C(=O)N4CCN(C)CC4)ccc3Cl)ncc2C#N)s1        Ki           nM   >         5000
 3  CNc1nc(C)c(-c2nc(Nc3cccc(C(=O)N4CCN(C)CC4)c3)ncc2C#N)s1        Ki           nM   =          313
 4  CNc1nc(C)c(-c2nc(Nc3ccc(C)c(S(=O)(=O)N4CCOCC4)c3)ncc2F)s1        Ki           nM   =          101
 5  CNc1nc(C)c(-c2nc(Nc3cccc(S(C)(=O)=O)c3)ncc2C#N)s1        Ki           nM   =           19
 6  CNc1nc(C)c(-c2nc(Nc3ccc(C(=O)NC4CCN(C)CC4)cc3)ncc2C#N)s1        Ki           nM   =           43
 7  CNc1nc(C)c(-c2nc(Nc3cccc(S(=O)(=O)NCCOC)c3)ncc2F)s1        Ki           nM   =           10
 8  CNc1nc(C)c(-c2nc(Nc3cccc(S(=O)(=O)N4CCOCC4)c3)ncc2C#N)s1        Ki           nM   =           73
 9  CNc1nc(C)c(-c2nc(Nc3cccc(C(=O)N4CCOCC4)c3)ncc2C#N)s1        Ki           nM   =          205
10  CNc1nc(C)c(-c2ccnc(Nc3cccc(C(=O)N4CCOCC4)c3)n2)s1        Ki           nM   =          261

* * *

molecular target: CDK9/cyclin T1 (Homo sapiens); test: Inhibition of CDK9/Cyclin T1 (unknown origin) by radiometric assay; settings: read-out: Ki(app)
Sequence (O60563 whole entry): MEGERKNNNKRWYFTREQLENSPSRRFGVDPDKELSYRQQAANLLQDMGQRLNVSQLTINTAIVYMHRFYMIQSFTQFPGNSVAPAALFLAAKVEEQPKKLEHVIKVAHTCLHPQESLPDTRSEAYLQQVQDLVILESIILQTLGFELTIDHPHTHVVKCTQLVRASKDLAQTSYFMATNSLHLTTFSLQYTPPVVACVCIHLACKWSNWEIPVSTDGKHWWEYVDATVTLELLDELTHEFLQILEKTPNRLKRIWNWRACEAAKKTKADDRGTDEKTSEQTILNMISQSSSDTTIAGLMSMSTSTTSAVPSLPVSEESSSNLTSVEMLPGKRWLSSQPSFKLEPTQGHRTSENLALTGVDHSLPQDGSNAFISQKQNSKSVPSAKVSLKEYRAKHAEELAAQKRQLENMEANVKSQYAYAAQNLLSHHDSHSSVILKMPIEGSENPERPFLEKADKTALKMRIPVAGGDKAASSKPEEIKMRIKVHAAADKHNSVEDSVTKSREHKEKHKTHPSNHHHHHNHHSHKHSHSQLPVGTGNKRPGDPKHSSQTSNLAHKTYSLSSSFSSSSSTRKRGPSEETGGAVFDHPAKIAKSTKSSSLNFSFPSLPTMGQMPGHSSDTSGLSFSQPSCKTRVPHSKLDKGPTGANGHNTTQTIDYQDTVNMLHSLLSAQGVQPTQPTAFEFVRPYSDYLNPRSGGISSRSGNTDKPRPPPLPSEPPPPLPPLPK
Sequence (P50750 whole entry): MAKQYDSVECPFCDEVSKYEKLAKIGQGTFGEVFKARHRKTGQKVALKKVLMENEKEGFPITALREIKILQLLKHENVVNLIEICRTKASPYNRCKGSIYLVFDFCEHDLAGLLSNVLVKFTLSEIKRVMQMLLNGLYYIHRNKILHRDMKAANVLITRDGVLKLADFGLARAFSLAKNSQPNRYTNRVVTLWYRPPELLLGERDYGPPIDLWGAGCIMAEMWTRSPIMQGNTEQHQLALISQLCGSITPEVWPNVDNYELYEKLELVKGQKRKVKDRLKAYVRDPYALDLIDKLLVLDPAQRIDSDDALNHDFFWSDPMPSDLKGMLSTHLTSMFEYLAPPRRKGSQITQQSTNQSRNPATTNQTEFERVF
Rule: measured Ki below 20 nM gets t; anything equal to or greater than 20 nM gets f.

> print(dat)
                                 smiles.text  assigned.label
 1  Cc1nc(N)sc1-c1nc(Nc2cccc(N3CCN(C)CC3)c2)ncc1F               t
 2  CNc1nc(C)c(-c2nc(Nc3cccc(C(=O)NC4CCN(C)CC4)c3)ncc2C#N)s1               t
 3  CNc1nc(C)c(-c2nc(Nc3ccc(C(=O)NC4CCN(C)CC4)cc3)ncc2C#N)s1               t
 4  CNc1nc(C)c(-c2nc(Nc3cc(C(=O)N4CCN(C)CC4)ccc3Cl)ncc2C#N)s1               f
 5  CNc1nc(C)c(-c2nc(Nc3cccc(C(=O)NC4CCN(C)CC4)c3)ncc2F)s1               f
 6  CNc1nc(C)c(-c2nc(Nc3cccc(S(C)(=O)=O)c3)ncc2C#N)s1               t
 7  CNc1nc(C)c(-c2nc(Nc3cccc(C(=O)N4CCN(C)CC4)c3)ncc2C#N)s1               t
 8  CNc1nc(C)c(-c2nc(Nc3ccc(C)c(S(=O)(=O)N4CCOCC4)c3)ncc2F)s1               t
 9  CNc1nc(C)c(-c2nc(Nc3cccc(S(=O)(=O)NCCOC)c3)ncc2F)s1               t
10  CNc1nc(C)c(-c2ccnc(Nc3ccc(C)c(S(=O)(=O)N4CCOCC4)c3)n2)s1               f
11  CNc1nc(C)c(-c2nc(Nc3cccc(S(=O)(=O)N4CCN(C)CC4)c3)ncc2C#N)s1               f
12  CNc1nc(C)c(-c2ccnc(Nc3cccc(C(=O)N4CCOCC4)c3)n2)s1               f
13  CNc1nc(C)c(-c2nc(Nc3cccc(S(=O)(=O)NCCOC)c3)ncc2C#N)s1               t
14  CNc1nc(C)c(-c2nc(Nc3cccc(C(=O)N4CCN(C(C)=O)CC4)c3)ncc2C#N)s1               t
15  CNc1nc(C)c(-c2nc(Nc3cccc(N4CCN(C)CC4)c3)ncc2F)s1               t
16  CNc1nc(C)c(-c2nc(Nc3cccc(S(=O)(=O)N4CCOCC4)c3)ncc2C#N)s1               t
17  CC(=O)N1CCN(c2cccc(Nc3ncc(F)c(-c4sc(N)nc4C)n3)c2)CC1               t

* * *

molecular target: CDK2/Cyclin A2 (Homo sapiens); assay: Inhibition of CDK2/Cyclin A (unknown origin) by radiometric assay; conditions: read-out: Ki(app)
pKi: −log10 of the molar value.
ENDPOINT: pKi

> print(dat)
                                 smiles.text                         system  endpoint  op  measurement
 1  CNc1nc(C)c(-c2nc(Nc3cccc(S(=O)(=O)NCCOC)c3)ncc2C#N)s1  CDK2/Cyclin A2 (Homo sapiens)       pKi   =         7.66
 2  CNc1nc(C)c(-c2nc(Nc3cccc(C(=O)N4CCN(C)CC4)c3)ncc2C#N)s1  CDK2/Cyclin A2 (Homo sapiens)       pKi   =         6.79
 3  CC(=O)N1CCN(c2cccc(Nc3ncc(F)c(-c4sc(N)nc4C)n3)c2)CC1  CDK2/Cyclin A2 (Homo sapiens)       pKi   =         7.11
 4  CNc1nc(C)c(-c2nc(Nc3ccc(C(=O)NC4CCN(C)CC4)cc3)ncc2C#N)s1  CDK2/Cyclin A2 (Homo sapiens)       pKi   =         7.49
 5  CNc1nc(C)c(-c2nc(Nc3cccc(C(=O)NC4CCN(C)CC4)c3)ncc2C#N)s1  CDK2/Cyclin A2 (Homo sapiens)       pKi   =         6.50
 6  CNc1nc(C)c(-c2nc(Nc3cccc(S(=O)(=O)N4CCN(C)CC4)c3)ncc2C#N)s1  CDK2/Cyclin A2 (Homo sapiens)       pKi   =         6.23
 7  CNc1nc(C)c(-c2nc(Nc3ccc(C)c(S(=O)(=O)N4CCOCC4)c3)ncc2F)s1  CDK2/Cyclin A2 (Homo sapiens)       pKi   =         6.89
 8  CNc1nc(C)c(-c2nc(Nc3cccc(C(=O)N4CCN(C(C)=O)CC4)c3)ncc2C#N)s1  CDK2/Cyclin A2 (Homo sapiens)       pKi   =         6.87
 9  CNc1nc(C)c(-c2nc(Nc3cccc(S(=O)(=O)NCCOC)c3)ncc2F)s1  CDK2/Cyclin A2 (Homo sapiens)       pKi   =         8.22
10  CNc1nc(C)c(-c2nc(Nc3cccc(S(=O)(=O)N4CCOCC4)c3)ncc2C#N)s1  CDK2/Cyclin A2 (Homo sapiens)       pKi   =         7.26
11  CNc1nc(C)c(-c2ccnc(Nc3cccc(C(=O)N4CCOCC4)c3)n2)s1  CDK2/Cyclin A2 (Homo sapiens)       pKi   =         6.31
12  CNc1nc(C)c(-c2ccnc(Nc3ccc(C)c(S(=O)(=O)N4CCOCC4)c3)n2)s1  CDK2/Cyclin A2 (Homo sapiens)       pKi   =         6.53
13  Cc1nc(N)sc1-c1nc(Nc2cccc(N3CCN(C)CC3)c2)ncc1F  CDK2/Cyclin A2 (Homo sapiens)       pKi   =         7.17
14  CNc1nc(C)c(-c2nc(Nc3cccc(C(=O)NC4CCN(C)CC4)c3)ncc2F)s1  CDK2/Cyclin A2 (Homo sapiens)       pKi   =         6.64
15  CNc1nc(C)c(-c2nc(Nc3cccc(N4CCN(C)CC4)c3)ncc2F)s1  CDK2/Cyclin A2 (Homo sapiens)       pKi   =         7.39
16  CNc1nc(C)c(-c2nc(Nc3cc(C(=O)N4CCN(C)CC4)ccc3Cl)ncc2C#N)s1  CDK2/Cyclin A2 (Homo sapiens)       pKi   <         5.30
17  CNc1nc(C)c(-c2nc(Nc3cccc(S(C)(=O)=O)c3)ncc2C#N)s1  CDK2/Cyclin A2 (Homo sapiens)       pKi   =         7.37
18  CNc1nc(C)c(-c2nc(Nc3cccc(C(=O)N4CCOCC4)c3)ncc2C#N)s1  CDK2/Cyclin A2 (Homo sapiens)       pKi   =         6.70
